Parameter drug sensitivity score: see the listing below.
# System: CAF#4 (primary prostate cancer-associated fibroblasts of iCAF-like type)
# experiment: drug sensitivity score (DSS2, normalised partial AUC of dose-response, 72 h CellTiter-Glo viability) (DSS (dimensionless)); higher = more sensitive (stronger growth inhibition / cytotoxicity); extreme values may be limits of the assay

>  <compound>
Nc1ccccc1NC(=O)c1ccc(CNC(=O)OCc2cccnc2)cc1 [Entinostat] (tested concentration range 1-10000 nM)

>  <drug sensitivity score>
4.8

$$$$
>  <compound>
C[C@@H]1CN(C(=O)c2ccc(NC(=O)c3cc(O[C@H](C)c4c(Cl)ccc(F)c4Cl)c(N)nn3)cc2)C[C@H](C)N1 [Ensartinib] (tested concentration range 0.1-1000 nM)

>  <drug sensitivity score>
0.7

$$$$
>  <compound>
Cc1cccc(-c2[nH]c(CNc3ccccc3F)nc2-c2ccc3ncnn3c2)n1 [TEW-7197] (tested concentration range 0.2-2500 nM)

>  <drug sensitivity score>
0

$$$$
>  <compound>
CC(C)Oc1ccc(-c2nn([C@@H](C)c3oc4ccc(F)cc4c(=O)c3-c3cccc(F)c3)c3ncnc(N)c23)cc1F [Umbralisib] (tested concentration range 0.2-2500 nM)

>  <drug sensitivity score>
0

$$$$
>  <compound>
C/C(=C\c1csc(C)n1)[C@@H]1C[C@@H]2O[C@]2(C)CCC[C@H](C)[C@H](O)[C@@H](C)C(=O)C(C)(C)[C@@H](O)CC(=O)N1 [Ixabepilone] (tested concentration range 0.1-1000 nM)

>  <drug sensitivity score>
2.9

$$$$

All values here come from the supplement of paper PMC12592484.
